Target: Mycobacterium tuberculosis RNAP (Mycobacterium tuberculosis, UniProt P9WGY7+P9WGY9)
Test: biochemical
property: IC50 (nM)

INSERT INTO measurements (molecule, property, numeric_readout) VALUES
  ('CC=C(C)C(=O)NCC1NC(=O)C(C(=O)O)NC(=O)C(O)CNC(=O)C(C(C)O)NC(=O)C(C(O)C(O)C(N)=O)NC(=O)C(C(C)C)NC(=O)C(CO)NC1=O (stereo not shown)', 'IC50', 100);

----------
Target: [Lys684]β-RNAP (Escherichia coli, UniProt P0A8T7+P0A8V2, N684K)
Assay: biochemical
Settings: GE-resistant RNAP [Lys684]β-RNAP
pIC50: −log10 of the molar value.
property: pIC50

INSERT INTO assay_data (compound, result) VALUES
  ('CC=C(C)C(=O)NCC1NC(=O)C(C(=O)O)NC(=O)C(O)CNC(=O)C(C(C)O)NC(=O)C(C(O)C(O)C(N)=O)NC(=O)C(C(C)C)NC(=O)C(CO)NC1=O (stereo not shown)', '< 3.40');
